Target: T1, human CD3e (T-cell surface glycoprotein CD3 epsilon chain) (human, UniProt P07766 23-207)
T1 construct: Target of the anti-hCD3e antibodies on human PBMC, Jurkat cells and cells expressing human CD3e; on T cells it is part of the CD3/TCR complex; also called hCD3e; CD3e on human PBMC
Assay: flow cytometry, human PBMC, antibody 1 µg/mL, anti-human IgG Fc-Alexa Fluor647 (1:500), anti-hTcRβ-PerCP (1:30)
Attribute measured: upper left quadrant, percent of cells AF647+ / hTcRβ-PerCP-

Can you look up the measured upper left quadrant, percent of cells AF647+ / hTcRβ-PerCP- of 1B1-H3K1-IgG1-LALA (antibody, V domains shown, Humanized; human IgG1 with LALA mutations; also called H3K1 (humanized 1B1)) VH: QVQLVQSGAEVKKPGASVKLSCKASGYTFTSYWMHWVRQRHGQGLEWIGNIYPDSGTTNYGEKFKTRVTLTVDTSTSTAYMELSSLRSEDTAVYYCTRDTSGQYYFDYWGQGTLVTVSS VL: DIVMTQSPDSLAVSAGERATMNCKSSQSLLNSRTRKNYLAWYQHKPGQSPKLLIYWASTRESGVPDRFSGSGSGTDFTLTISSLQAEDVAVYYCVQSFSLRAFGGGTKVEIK for me? 11%
